Source listed as PubChem BioAssay (NCI).

ASSAY_METHOD_TEXT: NCI Yeast Anticancer Drug Screen. Data for the cln2 rad14 strain (AID 165);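 further: 0% = growth equal to vehicle treated cultures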
MEASUREMENT_CONDITIONS: S. cerevisiae cln2 rad14 strain, at 50.0 µM (retest, dose inferred, filed as 5.0), hits give high values
The panel holds about 79,000 compounds, 15% with a hit somewhere; the sample as a whole holds those more often.
I'd be grateful if you could share measured growth inhibition for these entries.
One number for each entry, in %.

Consider the following illustrative entries.
>>> recorded_value("Cc1c2ccncc2c(C)c2c1sc1ccccc12")
95
>>> recorded_value("Nc1ccc(CSc2ccc(Cl)cc2)cc1Cl")
99
>>> recorded_value("CCCCSc1nc2c([nH]1)c(=S)n(C)c(=S)n2C")
85

Provide each entry's growth inhibition from the list below.
1. COC(=O)c1cc[nH]c(=O)c1
2. CC(=N/NC(=S)NCC(C)C)/C(C)=N\Nc1ccc(Cl)cc1
3. S=c1[nH]c(-c2ccccc2)cs1
4. O=C1/C(=C/c2ccccc2Cl)COc2ccccc21
5. O=C(O)/C=C/c1c2ccccc2cc2ccccc12

1. -70
2. 79
3. 73
4. 97
5. 96

Parameter requested: growth inhibition. Apply to each item below.
1. CCCCC(O)CCCC
2. N#Cc1c2c(c(N=[N+]=[N-])n3c1nc1ccccc13)CCCC2
3. COc1cc(Nc2ccc(Oc3ccc(O)cc3)cc2)c2ncccc2c1

13
97
22

Provide the reported growth inhibition of each entry below, same order.
1. CC(CN1CCOCC1)(CN1CCOCC1)[N+](=O)[O-]
2. Cc1ccc(Cc2nc(=S)[nH][nH]2)cc1
3. O=[N+]([O-])c1ccc(SC(=S)N2CCCCC2)c([N+](=O)[O-])c1
4. CC(c1ccc(OCc2ccccc2)cc1)c1cc2c(cc1OCCO)OCO2 (stereo not given)

1. 99
2. 1
3. 92
4. 47

Provide reported growth inhibition for each item, in the same order as listed.
1. O=C1CC2(CCCC2)C(=O)N1c1ccc(N2C(=O)CC3(CCCC3)C2=O)cc1
2. FC(F)(F)c1ccc(Nc2ccc(C(F)(F)F)cc2)cc1

[-7, 100]

Report growth inhibition for each item below.
1. CSC(=S)/C(=C/Nc1ncccn1)c1ccccc1
2. Oc1ccc(CCCCCc2ccc(O)cc2)cc1
3. CN(C)C(=O)Nc1ccc(Cc2ccc(NC(=O)N(C)C)cc2)cc1

1. 62
2. 99
3. -4

Provide reported growth inhibition for each item, in the same order as listed.
1. CCC(c1ccc(O)cc1)C(O)(CC)c1ccc(O)cc1 (stereo not given)
2. C/C(=N\OS(=O)(=O)O)SC1OC(CO)C(O)C(O)C1O (stereo not given)
3. O=C(OCc1ccccc1CN1CCOCC1)c1cccc(Br)c1
4. CCCCCCCCCCCCCCCCN[Si](NCCCCCCCCCCCCCCCC)(NCCCCCCCCCCCCCCCC)NCCCCCCCCCCCCCCCC
5. C/C([O-])=C1\Cc2ccccc2C1=O.C/C([O-])=C1\Cc2ccccc2C1=O.CC[O-].CC[O-].[Ti+4]
6. CCCCCCCCCCCCCCCCCC[N+]1(C)CCC[N+](C)(CCCCCCCCCCCCCCCCCC)CC1 (stereo not given)

[-1, 18, -3, 95, 4, 3]

Below are some compounds; for each one, tell me its growth inhibition.
1. COc1ccc(-c2c(CO)cc(OC)c(OC)c2OC)c(CO)c1
2. CO/N=C/c1cc(NC(=S)c2ccoc2C)ccc1Cl

1: 10; 2: 10

Please state growth inhibition for every compound in the list that follows.
1. CC(C)(C)c1ccc(Br)c(CCC(=O)NO)c1
2. Cn1c(=NCCc2ccccc2)oc2ccc(Cl)cc21

1: 91; 2: 16
